Numbers sourced from the RNAGym collection of RNA variant scans (doi:10.1002/anie.201605470).

B1: Osa-1-4 twister ribozyme (parent)
chain: CCGCCUAACACUGCCAAUGCCGGUCCCAAGCCCGGAUAAAAGUGGAGGGGGCGG

- Variants of: B1
- protocol: self-cleavage, relative activity (ratio to wild type); higher = more cleavage; co-transcriptional
# self-cleavage binned as bottom end = under 0.06, midrange = from 0.06 up to 0.1, top end = 0.1 and over

Use these answered entries as a reference point.
- residue string: "CCGCCUAACACUGCCAAUGCCGGUCCCAAGCCAGGAUAAAAGUGGCGGGGGCGG [A46C C33A]"
  cat: "bottom end"
- residue string: "CCGCCUAACACUGCCAAUGCUGGUCCCAAGCCCUGAUAAAAGUGGAGGGGGCGG [C21U G34U]"
  cat: "top end"
- residue string: "CCGCCUAACACUGCCAAUGCAGGUCCCAAGCCCGGAUAAAAGUGGAGGGGGCGC [C21A G54C]"
  cat: "top end"
- residue string: "CCGCCUAACACUGCCAAUGCCGGUCCCAAGCCCGGAUAAAGCUGGAGGGGGCGG [A41G G42C]"
  cat: "top end"
- residue string: "CCGCCUAACACUGCCAAUGCCGGUCCUAAGCCCGGAUAUAAGUGGAGGGGGCGG [A39U C27U]"
  cat: "top end"
- residue string: "CCGCCUAACACUGCCAAUGCCGGUCCCAAGGCCGGAGAAAAGUGGAGGGGGCGG [C31G U37G]"
  cat: "top end"

Request: Class? Entry: CCGCCUAACACUGCUAAUGCCGGUCCCAAGCCCGGAUAAAAGUGAAGGGGGCGG [C15U G45A]
Response: bottom end

Request: Class? Entry: CCGCCUAACACUGCCAAUGCGGGUCCCAGGCCCGGAUAAAAGUGGAGGGGGCGG [A29G C21G]
Response: midrange
